- TESTED_TARGET: MELKA (Homo sapiens)
- Construct: purchased in-house DSF kinase panel (SGC-style construct names; the trailing letter is the construct ID)
- Sequence (Q14680 1-340): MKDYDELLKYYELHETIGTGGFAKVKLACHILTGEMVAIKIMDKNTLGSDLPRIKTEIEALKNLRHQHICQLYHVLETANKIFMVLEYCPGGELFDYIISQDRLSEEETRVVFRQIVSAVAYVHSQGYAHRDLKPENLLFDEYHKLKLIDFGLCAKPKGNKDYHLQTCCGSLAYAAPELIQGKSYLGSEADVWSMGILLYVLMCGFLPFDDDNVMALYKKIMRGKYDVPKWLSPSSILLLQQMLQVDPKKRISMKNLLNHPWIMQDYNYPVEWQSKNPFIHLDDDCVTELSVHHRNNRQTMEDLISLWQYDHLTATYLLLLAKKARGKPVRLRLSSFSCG
- TEST_METHOD_NOTES: DSF Tm panel
- Type: binding
- COND: 10 μM compound
PROPERTY_LABEL: ΔTm at 10 µM (°C)

>>> value_observed("C[C@H](NC(=O)Nc1ccc2cc1OCCOCCNc1ccn3ncc-2c3n1)c1ccccc1")
1.3

P: O=C(NCc1ccc(Cl)cc1)Nc1ccc2cc1OCCOCCNc1ccn3ncc-2c3n1
Q: COc1ccccc1CNC(=O)Nc1ccc2cc1OCCOCCNc1ccn3ncc-2c3n1
Task: // compare measured ΔTm at 10 µM between P and Q ; output the lower one Kindly state the label of the option you pick.
Result: Q
(Q: 1 °C, P: 1.5 °C)

1: O=C(NCc1ccccc1)Nc1ccc2cc1OCCOCCNc1ccn3ncc-2c3n1
2: O=C(NCc1ccc(Cl)cc1Cl)Nc1ccc2cc1OCCOCCNc1ccn3ncc-2c3n1
Task: // compare measured ΔTm at 10 µM between 1 and 2 ; output the lower one Kindly state the label of the option you pick.
Result: 2

a: COc1ccc(CNC(=O)Nc2ccc3cc2OCCOCCNc2ccn4ncc-3c4n2)cc1
b: Cc1ccc(F)cc1CNC(=O)Nc1ccc2cc1OCCOCCNc1ccn3ncc-2c3n1
Task: Thinking about recorded ΔTm at 10 µM values, which is higher, a or b ? Kindly state the label of the option you pick.
Result: a
